Experiment: In vivo pharmacokinetics after intravenous administration to rats
Set-up: species or system male Sprague-Dawley rats
Conditions: rat, in vivo; 5 mg/kg intravenous bolus, male Sprague-Dawley rats
Bridge positions count the residues as written; N and C are the ends. Peptide text beside a SMILES is read from it.
observed property: half-life (min)

molecule: CC[C@H](C)[C@@H]1NC(=O)[C@H](CO)NC(=O)[C@H](CCCCN)NC(=O)[C@H](CCC(=O)O)NC(=O)[C@H](C)NC(=O)[C@@H]2CSSC[C@H](NC(=O)[C@H]([C@@H](C)O)NC(=O)[C@H](CCC(=O)O)NC(=O)CNC(=O)[C@H](Cc3c[nH]c4ccccc34)NC(=O)[C@H](CC(=O)O)NC(=O)[C@H](CC(=O)O)NC(=O)[C@H](CC(C)C)NC1=O)C(=O)N[C@@H](CCCCN)C(=O)NCC(=O)N2 [Compound 10, KSILDDWGETCKGCAE] (cyclo(AEKSILDDWGETCKGC); disulfide 13-16)
test result: 3.6

molecule: C[C@@H]1NC(=O)[C@@H]2CSSC[C@H](NC(=O)[C@H]([C@@H](C)O)NC(=O)[C@H](CCC(=O)O)NC(=O)CNC(=O)[C@H](Cc3c[nH]c4ccccc34)NC(=O)[C@H](CO)NC(=O)[C@H](CCCCN)NC(=O)[C@H](CCC(=O)O)NC1=O)C(=O)N[C@@H](CCCCN)C(=O)NCC(=O)N2 [Compound 14, WGETCKGCAEKS] (cyclo(AEKSWGETCKGC); disulfide 9-12)
test result: 15.8

====

// values below are reported AUC(0-inf)
Assay: In vivo pharmacokinetics after intravenous administration to rats
Set-up: species or system male Sprague-Dawley rats
Conditions: rat, in vivo; 5 mg/kg intravenous bolus, male Sprague-Dawley rats
Procedure: The clearance and elimination of peptides can be mediated by multiple processes in vivo, including metabolism and renal elimination. […] The standard samples were prepared into rat plasma by spiking the matrix into concentrations 2-10 000 ng/ml of the analyte, respectively, and otherwise treated as the samples. […] Supernatants were analyzed by UHPLC-TOF mass spectrometry using electrospray ionization.
Bridge positions count the residues as written; N and C are the ends. Peptide text beside a SMILES is read from it.

compound: CC[C@H](C)[C@@H]1NC(=O)[C@H](CO)NC(=O)[C@H](CCCCN)NC(=O)[C@H](CCC(=O)O)NC(=O)[C@H](C)NC(=O)[C@@H]2CSSC[C@H](NC(=O)[C@H]([C@@H](C)O)NC(=O)[C@H](CCC(=O)O)NC(=O)CNC(=O)[C@H](Cc3c[nH]c4ccccc34)NC(=O)[C@H](CC(=O)O)NC(=O)[C@H](CC(=O)O)NC(=O)[C@H](CC(C)C)NC1=O)C(=O)N[C@@H](CCCCN)C(=O)NCC(=O)N2 [Compound 10, KSILDDWGETCKGCAE] (cyclo(AEKSILDDWGETCKGC); disulfide 13-16)
AUC(0-inf) / ng·h/mL: 2140
//
compound: C[C@@H]1NC(=O)[C@@H]2CSSC[C@H](NC(=O)[C@H]([C@@H](C)O)NC(=O)[C@H](CCC(=O)O)NC(=O)CNC(=O)[C@H](Cc3c[nH]c4ccccc34)NC(=O)[C@H](CO)NC(=O)[C@H](CCCCN)NC(=O)[C@H](CCC(=O)O)NC1=O)C(=O)N[C@@H](CCCCN)C(=O)NCC(=O)N2 [Compound 14, WGETCKGCAEKS] (cyclo(AEKSWGETCKGC); disulfide 9-12)
AUC(0-inf) / ng·h/mL: 4970

====

Molecular target: GRP78-NBD
Assay: Binding to GRP78-NBD Kd (μM)
Bridge positions count the residues as written; N and C are the ends. Ends that are not written are not given here.
Rule for this label: fulfilled means Kd is less than 1000 nM; not fulfilled means Kd is at least 1000 nM.

sequence data: KSILDDWGETCKGCAE (disulfide 11-14) [Compound 9]
target under test: GRP78-NBD
class label: not fulfilled

sequence data: VDLKKLRVKELKKILDDWGETCKGCAE (disulfide 22-25) [Compound 3]
target under test: GRP78-NBD
class label: fulfilled

sequence data: VDLRKMRVAELKQILHSWGEECRACAE (disulfide 22-25) [Compound 1]
target under test: GRP78-NBD
class label: fulfilled

sequence data: WGETCKGCAEKS (disulfide 5-8) [Compound 13]
target under test: GRP78-NBD
class label: not fulfilled

sequence data: GEECRACAEKT (disulfide 4-7) [Compound 15]
target under test: GRP78-NBD
class label: not fulfilled

====

Consider the following compounds and their measured Vd readings.
Assay: In vivo pharmacokinetics after intravenous administration to rats
Parameters: species or system male Sprague-Dawley rats
Settings: rat, in vivo; 5 mg/kg intravenous bolus, male Sprague-Dawley rats
Bridge positions count the residues as written; N and C are the ends. Peptide text beside a SMILES is read from it.
observed property: Vd

compound: CC[C@H](C)[C@@H]1NC(=O)[C@H](CO)NC(=O)[C@H](CCCCN)NC(=O)[C@H](CCC(=O)O)NC(=O)[C@H](C)NC(=O)[C@@H]2CSSC[C@H](NC(=O)[C@H]([C@@H](C)O)NC(=O)[C@H](CCC(=O)O)NC(=O)CNC(=O)[C@H](Cc3c[nH]c4ccccc34)NC(=O)[C@H](CC(=O)O)NC(=O)[C@H](CC(=O)O)NC(=O)[C@H](CC(C)C)NC1=O)C(=O)N[C@@H](CCCCN)C(=O)NCC(=O)N2 [Compound 10, KSILDDWGETCKGCAE] (cyclo(AEKSILDDWGETCKGC); disulfide 13-16)
test result: 0.05 L/kg

compound: C[C@@H]1NC(=O)[C@@H]2CSSC[C@H](NC(=O)[C@H]([C@@H](C)O)NC(=O)[C@H](CCC(=O)O)NC(=O)CNC(=O)[C@H](Cc3c[nH]c4ccccc34)NC(=O)[C@H](CO)NC(=O)[C@H](CCCCN)NC(=O)[C@H](CCC(=O)O)NC1=O)C(=O)N[C@@H](CCCCN)C(=O)NCC(=O)N2 [Compound 14, WGETCKGCAEKS] (cyclo(AEKSWGETCKGC); disulfide 9-12)
test result: 0.12 L/kg

Data origin: patent US20230391841A1
